Target: Insulin receptor (Homo sapiens)
Sequence (P06213 28-758 limits assumed): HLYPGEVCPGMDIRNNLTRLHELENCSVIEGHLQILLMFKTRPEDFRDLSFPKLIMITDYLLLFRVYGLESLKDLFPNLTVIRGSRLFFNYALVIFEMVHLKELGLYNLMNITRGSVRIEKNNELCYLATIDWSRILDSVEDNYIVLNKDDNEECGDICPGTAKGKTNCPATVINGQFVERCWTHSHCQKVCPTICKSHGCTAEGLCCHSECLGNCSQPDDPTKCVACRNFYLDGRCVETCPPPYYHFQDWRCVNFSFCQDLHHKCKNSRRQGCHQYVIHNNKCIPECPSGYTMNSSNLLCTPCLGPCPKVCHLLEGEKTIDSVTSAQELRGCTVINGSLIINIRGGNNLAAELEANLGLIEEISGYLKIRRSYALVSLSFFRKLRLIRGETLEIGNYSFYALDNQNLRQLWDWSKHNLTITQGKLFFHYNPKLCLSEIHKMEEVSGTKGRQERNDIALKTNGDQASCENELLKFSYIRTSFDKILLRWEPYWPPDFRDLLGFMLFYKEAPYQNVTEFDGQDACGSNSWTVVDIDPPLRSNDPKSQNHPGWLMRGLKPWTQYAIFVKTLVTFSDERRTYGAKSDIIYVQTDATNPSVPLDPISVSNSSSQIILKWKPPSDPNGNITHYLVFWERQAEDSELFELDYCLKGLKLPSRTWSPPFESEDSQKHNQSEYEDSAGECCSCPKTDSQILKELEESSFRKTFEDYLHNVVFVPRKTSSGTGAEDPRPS
Sequence (P06213 763-1382 limits assumed): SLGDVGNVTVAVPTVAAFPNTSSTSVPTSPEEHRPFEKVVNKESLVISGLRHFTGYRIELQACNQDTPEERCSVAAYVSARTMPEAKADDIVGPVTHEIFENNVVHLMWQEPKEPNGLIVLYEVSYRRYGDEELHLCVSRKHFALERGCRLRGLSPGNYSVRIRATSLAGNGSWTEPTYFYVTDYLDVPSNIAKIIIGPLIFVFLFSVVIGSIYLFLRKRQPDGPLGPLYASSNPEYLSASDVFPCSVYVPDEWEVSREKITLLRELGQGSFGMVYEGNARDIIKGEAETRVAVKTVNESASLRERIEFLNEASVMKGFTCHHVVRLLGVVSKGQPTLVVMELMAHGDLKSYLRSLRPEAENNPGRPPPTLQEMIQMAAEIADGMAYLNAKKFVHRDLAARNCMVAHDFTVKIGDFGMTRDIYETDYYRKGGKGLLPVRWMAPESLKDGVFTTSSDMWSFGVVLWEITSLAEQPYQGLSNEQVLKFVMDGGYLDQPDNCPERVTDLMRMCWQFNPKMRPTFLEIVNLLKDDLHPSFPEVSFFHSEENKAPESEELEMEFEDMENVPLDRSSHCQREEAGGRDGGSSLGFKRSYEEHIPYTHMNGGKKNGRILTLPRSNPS
Test: Inhibition of human IR
readout.label: pIC50
Scale note: pIC50 = -log10(concentration in M).

CCCN1CCC=C(c2ccc(Nc3nc(Nc4ccccc4C(N)=O)c4cc[nH]c4n3)c(C)c2)C1 [GSK-994854A] has a reported pIC50 of 8.20

---

Target: Aurora kinase B (Homo sapiens, UniProt Q96GD4)
Sequence (Q96GD4 whole entry): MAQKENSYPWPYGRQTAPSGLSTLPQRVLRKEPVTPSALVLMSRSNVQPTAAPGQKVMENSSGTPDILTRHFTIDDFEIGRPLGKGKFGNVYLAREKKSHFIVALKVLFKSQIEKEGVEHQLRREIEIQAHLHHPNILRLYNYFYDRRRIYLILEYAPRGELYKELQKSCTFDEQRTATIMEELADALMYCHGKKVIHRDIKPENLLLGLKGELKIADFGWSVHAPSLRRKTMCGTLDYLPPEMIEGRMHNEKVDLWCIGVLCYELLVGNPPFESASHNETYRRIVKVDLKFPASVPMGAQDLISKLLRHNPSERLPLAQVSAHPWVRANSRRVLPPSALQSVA
readout.label: IC50 (nM)
Provide the reading as a plain figure in nM.

`CCCN1CCC=C(c2ccc(Nc3nc(Nc4ccccc4C(N)=O)c4cc[nH]c4n3)cc2)C1` has a reported IC50 of 5

---

Assay: Clearance in rat at 2.3 mg/kg, iv
Assay type: ADME, organism-based
Design: dose 2.3 mg/kg, route intravenous
Conditions: in vivo
readout.label: clearance (mL/min/kg)
Provide the reading as a plain figure in mL/min/kg.

`COc1cc(N2CCN(C(C)C)CC2)ccc1Nc1nc(Nc2cc(F)cc(F)c2C(N)=O)c2cc[nH]c2n1` has a reported clearance of 46
